Please go through the items and note down their koff.
# study_target: hFc-hROR2-T245 (recombinant human ROR2 extracellular domain fused to human Fc) (human) (UniProt Q01974)
# Sequence (Q01974 55-394 limits assumed, form in doubt): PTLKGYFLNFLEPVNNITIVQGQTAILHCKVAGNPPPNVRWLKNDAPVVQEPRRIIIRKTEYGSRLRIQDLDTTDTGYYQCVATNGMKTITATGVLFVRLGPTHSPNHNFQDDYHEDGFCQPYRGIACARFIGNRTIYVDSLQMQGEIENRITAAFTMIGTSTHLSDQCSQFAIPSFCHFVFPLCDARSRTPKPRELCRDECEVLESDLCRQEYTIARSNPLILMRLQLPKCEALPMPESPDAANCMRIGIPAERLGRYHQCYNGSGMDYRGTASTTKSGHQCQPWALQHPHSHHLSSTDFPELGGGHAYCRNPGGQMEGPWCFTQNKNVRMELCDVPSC
# protocol: SPR (Biacore X100), hFc-hROR2 captured by anti-human Fc on CM5, Fab as analyte, 1:1 Langmuir model
Numbers only, in s⁻¹.

Below, each entry is followed by its recorded koff result.
Recorded result, chimeric rabbit/human Fab XBR2-TOP72 (Fab, V domains shown) VH: QEQLEESGGRLVTPGTPLTLTCTVSGIDLSSNAMSWVRQAPGKGLEYVGFINGGGGVHYASWARGRFTISKTSTTVDLKITSPTTEDTATYFCARAGTTYYTSFNLWGPGTLVTISS VL: QFVLTQSPSASAALGSSAKLTCTLSSAHKTYTIAWYQQQQGEAPRLLMMLRTDGSYTKGTGVPDRFSGSSSGADRYLIISSVQADDAAGYYCGADYSGGYVFGGGTQLTVTG , koff: 0.154

Recorded result, chimeric rabbit/human Fab XBR2-433 (Fab, V domains shown) VH: QSVKESEGGLFKPTDTLTLTCTVSGFSLSTYGVSWVRQAPGNGLEWIGAIGSSGSANYASWAKDRSTITRNTNLNTVTLKMTSLTAADTATYFCARDGYYSSGWGPYFNIWGPGTLVTISS VL: SFVLTQPASVQVNLGQTVSLTCTADTLSRSYASWYQQKPGQAPVLLIYRDTSRPSGVPDRFSGSSSGNTATLTISGAQAGDEADYYCATSGGSGSNPQYVFGGGTQLTVTG , koff: 0.108

Count: 6. Required value per item: koff.
1. chimeric rabbit/human Fab ERR2-TOP35 (Fab, V domains shown) VH: QSVKESEGGLFKPMDTLTLTCTVSGFSLNTYGVSWVRQAPGNGLEWIGAVGSSGATNYASWAKSRSTITRNTNENTVTLKMTSLTAADTATYFCARDGYYSSGWGPYFSIWGPGTLVTVSS VL: SFVLTQPASVQVNLGQTVSLTCTAETLRSSYASWYQQKPGQAPVLLIYRDTSRPSGVPDRFSGSSSGNTATLTISGAQAGDEADYYCATSDGSGSRYYVFGGGTQLTVTG
2. chimeric rabbit/human Fab ERR2-316 (Fab, V domains shown) VH: QKQLVESGGRLVTPGGSLTLTCTVSGFSLSKYGVSWVRQAPGSGLEYIGTIGGSGTSYYASWAKSRSTITRNTNLNTVTLKMTSLTAADTATYFCARYFGWNTGFDIWGPGTLVTISS VL: DPVMTQTPSSVSEPVGGTVTIKCQASQSISNALAWYQQKPGQPPKRLIYKASTPASGVPSRFKGSRSGTEYTLTISGVQREDAATYYCLGFSVVSNDGWAFGAGTNVEIK
3. chimeric rabbit/human Fab XBR2-TOP9 (Fab, V domains shown) VH: QSVEESRGRLVTPGTPLTLICTVSGIDLSSYNIQWVRQAPGKGLEYIGYINTDGSAYYASWAKGRFTISKTSTTVDLKITSPTTEDTATYFCARGGYASGFNLWGPGTLVTISS VL: DVVMTQTPSSTSAAVGGTVTIKCQASQNIGPWLSWYQQKPGQPPKQLIYAASTLASGVPSRFKGSGSGTDYTLTISGVQREDAATYYCLGWHSWSDDGWAFGAGTNVEIK
4. chimeric rabbit/human Fab ERR2-317 (Fab, V domains shown) VH: QSLEESGGRLVTPGTPLTLTCTASGFSLSSYDMIWVRQAPGKGLEYIGIINAGGNTYYASWAKGRFTISRTSTTVDLKMTSPTTEDTATYFCARGSSWTGDIWGPGTLVTVSS VL: DPVLTQTPSSTSAAVGGTVTIKCQASQSISSYLSWYQQKPGQPPKQLIYAASTLASGVPSRFKGSGSGTEYTLTISGVQREDAATYYCLGGYASASYQTAFGGGTKVEIK
5. chimeric rabbit/human Fab ERR2-302 (Fab, V domains shown) VH: QKQLVESGGGLVKPGGSLTLTCTVSGFSLSSYAIGWVRQAPGNGLEWIGIINSYGSTYYASWAKSRSTITRNTNLNTVTLKMTSLTAADTATYFCARSPYGYVSAWGYHRLDLWGQGTLVTISS VL: SYELTQLPSVSVSLGQTARITCGGASIGSKVVHWYQQKPGLAPGLLIYDDDERPSGVPDRFSGSNSGDTATLTISGAQAGDEAEYYCQLWDGSDVVFGGGTQLTVTG
6. chimeric rabbit/human Fab ERR2-308 (Fab, V domains shown) VH: QEQLEESGGRLVTPGTPLTLTCAVSGFSLSNYAMGWVRQAPGEGLEYIGWISAGGGAYYASWVNGRFTISKTSSTVDLKMTSLTAADTATYFCARGASNGCDLWGPGTLVTVSS VL: DPMLTQTPSSVSAVVGGTVTIKCQASQSITSWLSWYQQKPGQPPKLLIYGASHLASGVPSRFKGSGYGTEFTLTISGIQREDAATYYCLGGYSNSDIVFGGGTELEIL

Solution:
1: 0.00851; 2: 0.0178; 3: 0.0467; 4: 0.0132; 5: 0.00544; 6: 0.000286

Count: 3. Required value per item: koff.
1. chimeric rabbit/human Fab XBR2-327 (Fab, V domains shown) VH: QEQLKESGGGLFKPTDTLTLTCTVSGFSLSSGAISWVRQAPGNGLEYIGFVNSLGNTYYANWAKSRSAITRNTNENTVTLKMTSLAAADTATYFCAKDYGNWAFDPWGPGTLVTVSS VL: DPVLTQTPSSVSAAVGGTVAINCQASQSISSYLSWYQQKPGQPPKLLIYGASKLASGVPSRFSGSGSGTEYTLTISGVQREDAATYYCLGGYASASYRTAFGGGTKLEIK
2. chimeric rabbit/human Fab XBR2-416 (Fab, V domains shown) VH: QEQLEESGGRLVTPGTPLTLTCTVSGFSLSSYWMSWVRQAPGKGLEWIGTITPGGNTDYATWAKARFTVSKTSTTVDLKITSPTTEDTATYFCARGIGGAADLWGPGTLVTISS VL: AQVLTQTPSSTSAAVGGTVTIKCQASQSISSSDLSWYQQKPGQPPKLLIYATSYLASGVPSRFKGSGSGTEYTLTISGVQREDAATYYCLGGYPNTSYRSAFGGGTKVEIK
3. chimeric rabbit/human Fab ERR2-TOP2 (Fab, V domains shown) VH: QSLEESGGRLVTPGTPLTLTCTVSGFSLSSYAISWVRQAPGKGLEWIGTIGTRGDTAYANWAKGRFTISKTSTTVTLKMTSPTTEDTATYFCARELVAGGGSDLWGPGTLVTVSS VL: DVVMTQTPSSVSAVVGGTVTIKCQASQSITSWLSWYQQKPGQPPKLLIYGASHLASGVPSRFKGSGYGTEFTLTISGIQREDAATYYCLGGYLSASYQTAFGGGTKVEIK

Solution:
[0.00546, 0.0173, 0.00242]
